Test system: HEL
Assay: Anti-proliferation, 24 hr treatment (CellTiter-Glo)
Assay type: cell-based, human
Conditions: Homo sapiens, HEL, 24 h, read-out: Anti-proliferation IC50
result_type: pIC50
Note on units: pIC50 is unitless, being -log10 of a concentration expressed in mol/L.

So, CN(CCCNC(=O)c1ccc2nc3c(c(Cl)c2c1)CCCC3)Cc1ccccc1 [HBX19818, reference compound] ? Its pIC50 was 4.59

* * *

Tested on: K052
Test: Anti-proliferation, 24 hr treatment (CellTiter-Glo)
Type: cell-based, human
Settings: 24 hr treatment; K052 (FLT3 wt or null); read-out: Anti-proliferation IC50
result_type: pIC50
Note on units: pIC50 is unitless, being -log10 of a concentration expressed in mol/L.

So, O=C(NCCCN1CCN(Cc2ccccc2)CC1)c1ccc2nc3c(c(Cl)c2c1)CCCC3 [C598-0563] ? Its pIC50 was 4.84

So, CCCN(CCC)CCCNC(=O)c1ccc2c(Cl)c3c(nc2c1)CCCC3 [C598-0466] ? Its pIC50 was 4.94

So, O=C(NCCN1CCN(Cc2ccccc2)CC1)c1ccc2nc3c(c(Cl)c2c1)CCCC3 [C598-0571] ? Its pIC50 was 4.45

So, CCN(CCCNC(=O)c1ccc2nc3c(c(Cl)c2c1)CCC3)Cc1ccccc1 [C673-0105] ? Its pIC50 was 4.63

* * *

Tested on: K562
Assay: Anti-proliferation, 24 hr treatment (CellTiter-Glo)
Type: cell-based, human
Conditions: 24 hr treatment; K562 (FLT3 wt or null); read-out: Anti-proliferation IC50
Exercise: state measured IC50 for each of the compounds provided.
Answer format: numeric, µM implied, no suffix.

So, `CCCN(CCC)CCCNC(=O)c1ccc2c(Cl)c3c(nc2c1)CCCC3` ? Its IC50 was 13.3

So, `CCN(CCCNC(=O)c1ccc2nc3c(c(Cl)c2c1)CCC3)Cc1ccccc1` ? Its IC50 was 23.7

So, `O=C(NCCN1CCN(Cc2ccccc2)CC1)c1ccc2nc3c(c(Cl)c2c1)CCCC3` ? Its IC50 was 35.9

So, `O=C(NCCCN1CCN(Cc2ccccc2)CC1)c1ccc2nc3c(c(Cl)c2c1)CCCC3` ? Its IC50 was 15.9

* * *

System: HEL
Assay: Anti-proliferation, 24 hr treatment (CellTiter-Glo)
Format: cell-based, human
Details: 24 hr treatment; HEL (FLT3 wt or null); read-out: Anti-proliferation IC50
Description: Nomo-1, P31-FUJ, and NB4 were obtained from Dr. Gary Gilliland. MV4, 11 cells were obtained from Dr. Anthony Letai. Hel, K562, THP, U937, TF-1 and K052 cells were purchased from the American Type Culture Collection (ATCC) (Manassas, Va., USA). […]
result_type: IC50 (µM)
Answer format: numeric, µM implied, no suffix.

So, `O=C(NCCN1CCN(Cc2ccccc2)CC1)c1ccc2nc3c(c(Cl)c2c1)CCCC3` ? Its IC50 was 40.7

So, `CCN(CCCNC(=O)c1ccc2nc3c(c(Cl)c2c1)CCC3)Cc1ccccc1` ? Its IC50 was 34.4

So, `CCCN(CCC)CCCNC(=O)c1ccc2c(Cl)c3c(nc2c1)CCCC3` ? Its IC50 was 16.8

So, `O=C(NCCCN1CCN(Cc2ccccc2)CC1)c1ccc2nc3c(c(Cl)c2c1)CCCC3` ? Its IC50 was 19.6
